# ASSAY SYSTEM: Histone-binding protein RBBP4/Histone-lysine N-methyltransferase EZH2/Polycomb protein EED [40-441]/Polycomb protein SUZ12 (Homo sapiens, UniProt O75530+Q09028+Q15022+Q15910)
# Construct: 40-441
# Sequence (Q15910 whole entry): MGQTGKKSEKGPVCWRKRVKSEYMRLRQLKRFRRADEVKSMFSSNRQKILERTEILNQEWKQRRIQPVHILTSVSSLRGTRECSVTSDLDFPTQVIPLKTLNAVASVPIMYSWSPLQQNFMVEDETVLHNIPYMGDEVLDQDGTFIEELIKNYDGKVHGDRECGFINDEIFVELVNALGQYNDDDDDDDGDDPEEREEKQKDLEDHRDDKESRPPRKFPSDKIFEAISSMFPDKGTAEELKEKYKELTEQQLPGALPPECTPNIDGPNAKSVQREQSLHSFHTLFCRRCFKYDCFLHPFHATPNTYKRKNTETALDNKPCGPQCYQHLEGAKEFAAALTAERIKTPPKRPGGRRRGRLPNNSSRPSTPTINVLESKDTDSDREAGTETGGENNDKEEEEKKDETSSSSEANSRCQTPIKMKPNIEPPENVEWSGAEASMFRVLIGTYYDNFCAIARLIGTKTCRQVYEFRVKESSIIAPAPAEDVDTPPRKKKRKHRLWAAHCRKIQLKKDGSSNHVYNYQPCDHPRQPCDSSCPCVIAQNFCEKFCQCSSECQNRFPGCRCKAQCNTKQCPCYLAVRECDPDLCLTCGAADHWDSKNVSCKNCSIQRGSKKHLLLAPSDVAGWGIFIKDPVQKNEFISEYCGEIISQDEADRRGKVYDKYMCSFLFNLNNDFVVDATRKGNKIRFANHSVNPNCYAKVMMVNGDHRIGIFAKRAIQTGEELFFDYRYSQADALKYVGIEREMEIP
# Sequence (Q15022 whole entry): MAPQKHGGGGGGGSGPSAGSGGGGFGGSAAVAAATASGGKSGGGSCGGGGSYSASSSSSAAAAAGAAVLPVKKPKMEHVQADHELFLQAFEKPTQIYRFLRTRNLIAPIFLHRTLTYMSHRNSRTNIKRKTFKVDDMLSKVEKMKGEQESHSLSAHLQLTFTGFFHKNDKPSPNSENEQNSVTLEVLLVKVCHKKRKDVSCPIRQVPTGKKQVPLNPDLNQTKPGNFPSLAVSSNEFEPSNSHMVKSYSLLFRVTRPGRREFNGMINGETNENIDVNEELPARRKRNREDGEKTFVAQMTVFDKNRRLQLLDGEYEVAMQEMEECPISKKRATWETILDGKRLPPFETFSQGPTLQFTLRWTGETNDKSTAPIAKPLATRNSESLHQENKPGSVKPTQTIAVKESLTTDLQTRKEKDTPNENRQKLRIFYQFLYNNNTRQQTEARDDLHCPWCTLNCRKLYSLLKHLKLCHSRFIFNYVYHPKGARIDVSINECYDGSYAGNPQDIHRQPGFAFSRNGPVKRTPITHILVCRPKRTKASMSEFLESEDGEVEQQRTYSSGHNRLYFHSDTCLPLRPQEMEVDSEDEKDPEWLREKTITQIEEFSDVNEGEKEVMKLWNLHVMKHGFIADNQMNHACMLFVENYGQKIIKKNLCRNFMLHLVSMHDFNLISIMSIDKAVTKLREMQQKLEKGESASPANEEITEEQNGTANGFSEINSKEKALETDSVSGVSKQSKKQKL
# Sequence (Q09028 whole entry): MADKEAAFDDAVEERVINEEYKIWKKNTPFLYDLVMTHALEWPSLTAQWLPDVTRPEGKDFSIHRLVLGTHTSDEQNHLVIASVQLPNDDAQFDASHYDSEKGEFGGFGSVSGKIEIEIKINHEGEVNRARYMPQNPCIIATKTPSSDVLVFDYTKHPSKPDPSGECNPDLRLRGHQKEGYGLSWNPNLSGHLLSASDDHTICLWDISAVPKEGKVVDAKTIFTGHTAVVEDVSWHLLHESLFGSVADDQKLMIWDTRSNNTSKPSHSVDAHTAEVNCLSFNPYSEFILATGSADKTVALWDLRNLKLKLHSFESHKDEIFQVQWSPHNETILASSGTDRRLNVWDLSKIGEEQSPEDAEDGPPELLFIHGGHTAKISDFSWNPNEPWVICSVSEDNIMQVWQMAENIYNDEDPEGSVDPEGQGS
# Sequence (O75530 40-441): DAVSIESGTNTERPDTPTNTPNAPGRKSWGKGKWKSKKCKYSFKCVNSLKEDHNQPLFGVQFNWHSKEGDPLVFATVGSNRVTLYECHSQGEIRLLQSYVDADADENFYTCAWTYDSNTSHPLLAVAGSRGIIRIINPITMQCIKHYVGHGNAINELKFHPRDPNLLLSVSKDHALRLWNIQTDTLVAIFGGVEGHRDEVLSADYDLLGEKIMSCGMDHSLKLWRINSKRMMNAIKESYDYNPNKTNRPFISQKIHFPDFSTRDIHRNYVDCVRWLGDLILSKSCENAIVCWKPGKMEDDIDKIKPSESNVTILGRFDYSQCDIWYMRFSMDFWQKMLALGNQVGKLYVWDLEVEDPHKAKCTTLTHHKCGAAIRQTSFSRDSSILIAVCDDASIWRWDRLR
# PROTOCOL TEXT: TR-FRET Assay
pIC50: −log10 of the molar value.
OBSERVED PROPERTY: pIC50

[
  {
    "SMILES REPR": "O=C(Nc1ccc(Cl)cc1)N1CC=C(c2cnc(NCc3c(F)ccc4c3CCO4)n3cnnc23)CC1",
    "pIC50": 7.23
  },
  {
    "SMILES REPR": "O=C(Nc1ccc(Cl)cc1)N1CC=C(c2cnc(NCc3ccco3)n3cnnc23)CC1",
    "pIC50": 7.04
  }
]
